- target-or-system: Factor X, P00742
- Sequence (P00742 whole entry, looked up): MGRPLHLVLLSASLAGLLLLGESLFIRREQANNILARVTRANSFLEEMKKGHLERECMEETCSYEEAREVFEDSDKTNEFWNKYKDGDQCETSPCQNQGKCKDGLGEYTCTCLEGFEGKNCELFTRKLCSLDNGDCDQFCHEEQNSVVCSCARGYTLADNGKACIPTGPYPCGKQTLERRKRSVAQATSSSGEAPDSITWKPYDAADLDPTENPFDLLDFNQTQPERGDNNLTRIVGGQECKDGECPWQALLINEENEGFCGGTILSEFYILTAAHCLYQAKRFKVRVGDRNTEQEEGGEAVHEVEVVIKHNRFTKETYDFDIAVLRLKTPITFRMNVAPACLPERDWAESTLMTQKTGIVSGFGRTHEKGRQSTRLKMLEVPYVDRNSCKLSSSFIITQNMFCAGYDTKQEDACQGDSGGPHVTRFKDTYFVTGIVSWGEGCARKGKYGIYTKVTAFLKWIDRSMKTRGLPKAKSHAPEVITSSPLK
measured-attribute: kcat of FX activation by FIXa (Xase complex with FVIIIa, PC/PS vesicles, Ca2+) (s⁻¹)
Numbers only, in s⁻¹.

Would you please look over these solved cases?
FIXa-R318Y/R338E/R403E/E410N/T412V (protein) chain 1: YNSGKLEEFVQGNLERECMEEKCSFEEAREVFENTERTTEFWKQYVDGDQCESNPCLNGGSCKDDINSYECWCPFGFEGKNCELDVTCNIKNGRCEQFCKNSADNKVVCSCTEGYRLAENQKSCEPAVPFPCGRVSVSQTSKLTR chain 2: VVGGEDAKPGQFPWQVVLNGKVDAFCGGSIVNEKWIVTAAHCVETGVKITVVAGEHNIEETEHTEQKRNVIRIIPHHNYNAAINKYNHDIALLELDEPLVLNSYVTPICIADKEYTNIFLKFGSGYVSGWGRVFHKGYSALVLQYLRVPLVDRATCLESTKFTIYNNMFCAGFHEGGRDSCQGDSGGPHVTEVEGTSFLTGIISWGEECAMKGKYGIYTKVSEYVNWIKNKVKLT	7.9
FIXa-K247N/N249S/R318Y/R338E/E410N (protein) chain 1: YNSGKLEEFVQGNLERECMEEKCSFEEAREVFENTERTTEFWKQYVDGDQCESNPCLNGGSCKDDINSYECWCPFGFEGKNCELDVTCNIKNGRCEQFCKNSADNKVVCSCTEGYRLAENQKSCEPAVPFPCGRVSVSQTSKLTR chain 2: VVGGEDAKPGQFPWQVVLNGKVDAFCGGSIVNEKWIVTAAHCVETGVKITVVAGEHNIEETEHTEQNRSVIRIIPHHNYNAAINKYNHDIALLELDEPLVLNSYVTPICIADKEYTNIFLKFGSGYVSGWGRVFHKGYSALVLQYLRVPLVDRATCLESTKFTIYNNMFCAGFHEGGRDSCQGDSGGPHVTEVEGTSFLTGIISWGEECAMKGKYGIYTKVSRYVNWIKNKTKLT	3.8

Moving on to the next protein.
Exercise: Need kcat of FX activation by FIXa (Xase complex with FVIIIa, PC/PS vesicles, Ca2+), item FIXa-I251S/R318Y/R338E/R403E/E410N (protein) chain 1: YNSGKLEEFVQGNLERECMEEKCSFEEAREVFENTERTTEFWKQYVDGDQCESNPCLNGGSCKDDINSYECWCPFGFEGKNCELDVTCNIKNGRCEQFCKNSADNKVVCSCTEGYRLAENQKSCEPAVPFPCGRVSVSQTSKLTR chain 2: VVGGEDAKPGQFPWQVVLNGKVDAFCGGSIVNEKWIVTAAHCVETGVKITVVAGEHNIEETEHTEQKRNVSRIIPHHNYNAAINKYNHDIALLELDEPLVLNSYVTPICIADKEYTNIFLKFGSGYVSGWGRVFHKGYSALVLQYLRVPLVDRATCLESTKFTIYNNMFCAGFHEGGRDSCQGDSGGPHVTEVEGTSFLTGIISWGEECAMKGKYGIYTKVSEYVNWIKNKTKLT
Solution: 4.8
